- Test description: Antioxidant activity assessed as DPPH radical scavenging activity incubated for 30 min by DPPH assay
- Assay type: functional
IC50 less than 400 µM is true (1); IC50 greater than or equal to 400 µM is false (0).

>>> category("CC1(C)Oc2ccc(O)cc2C(O)C1O (configuration not stated)")
"false (0)"
>>> category("CC1(C)Oc2cc(O)c(O)cc2[C@@H]2O[C@H]3c4cc(O)c(O)cc4OC(C)(C)[C@H]3[C@@H]21 (racemic)")
"true (1)"
>>> category("COc1cc2c(cc1O)OC(C)(C)[C@H]1[C@H]3[C@@H](O[C@@H]21)c1cc(OC)c(O)cc1OC3(C)C (racemic)")
"false (0)"
>>> category("CC1(C)C=Cc2cc3c(cc2O1)O[C@@H]1c2cc(O)c(O)cc2OC(C)(C)[C@@H]1O3 (racemic)")
"true (1)"
>>> category("O=C1O[C@H]([C@@H](O)CO)C(O)=C1O")
"true (1)"
>>> category("COc1ccc2c(c1)C(O)C(O)C(C)(C)O2 (configuration not stated)")
"false (0)"
>>> category("COc1cc2c(cc1O)OC(C)(C)C(O)C2 (racemic)")
"true (1)"
